Each recorded value in this set is attributed to PubChem BioAssay (NCI).

# TGI per entry
- System: HT29 colon
- assay_explanation: NCI tumour cell line growth inhibition, 48 h
readout_type: TGI (µM)

>>> reported_result("COc1ccc2c(c1)sc1nc(-c3ccccc3)c(-c3cccc4ccccc34)n12")
4.38
>>> reported_result("OC1CSSC1Cn1cnc2c(Nc3ccc(OCc4cccc(F)c4)c(Cl)c3)ncnc21 (centres undefined)")
3.91

###

- System: UACC-62 melanoma
- assay_explanation: NCI tumour cell line growth inhibition, 48 h; in the data active = GI50 below about 0.43 µM; inactive = the rest
*1 amine or outer side, *2 acyl side, *3 side chain or, on linkers, in order; H or OH if unused. Where a SMILES comes first, the peptide text is derived from it. Bridges are numbered along the chain shown (N, C = ends). [ ]: non-standard residue; d: D form. The star is where a group is joined. Phe(3,5-F2) = N[C@@H](Cc1cc(F)cc(F)c1)C(=O)O; Pro(4R-Me) = C[C@H]1CN[C@H](C(=O)O)C1; aThr = C[C@H](O)[C@H](N)C(=O)O; Pip = O=C(O)[C@@H]1CCCCN1; X10 = Fc1cc(C2CC2)ccc1N*; CO = O=C([*:1])[*:2]
Classes used: active, inactive

>>> label_class("COc1cc2c(c(OC)c1OC)-c1ccc(NNC(N)=S)c(=O)cc1[C@@H](NC(C)=O)CC2")
"inactive"
>>> label_class("C[C@@H]1C[C@H]2C(=O)O[C@@H](C)[C@H](NC(=O)[C@H](Cc3cc(F)cc(F)c3)NC(=O)Nc3ccc(C4CC4)cc3F)C(=O)N3CCC[C@H]3C(=O)N3CCCC[C@H]3C(=O)N[C@@H](C)C(=O)N2C1 ({X10-CO}-[Phe(3,5-F2)][aThr]P[Pip]A[Pro(4R-Me)]; ester 2-C)")
"active"
>>> label_class("NC(N)=NS(=O)(=O)c1ccc(Nc2c3ccccc3nc3c(C(=O)NCCO)cccc23)cc1")
"inactive"

###

- Test system: NCI-H226 lung
- assay_explanation: NCI tumour cell line growth inhibition, 48 h
readout_type: TGI

>>> reported_result("CC(=O)NC(Cc1ccc(O)cc1)C(=O)O (centres undefined)")
"> 100 µM"
>>> reported_result("O=C(O)CCNCCCNCCC(=O)O")
"> 100 µM"
>>> reported_result("COc1ccc2c(c1)sc1nc(-c3ccccc3)c(-c3cccc4ccccc34)n12")
"5.28 µM"
>>> reported_result("C=CCO[C@H]1CO[C@H]2[C@@H]1OC[C@@H]2Oc1ccc(Nc2ccnc(Nc3ccc(O[C@H]4CO[C@H]5[C@@H]4OC[C@@H]5OCC=C)c(Cl)c3)n2)cc1Cl")
"72.3 µM"
>>> reported_result("Nc1nc(-n2c(-c3ccccc3)nc3c(Br)cc(Br)cc3c2=O)nnc1-c1cccc(Cl)c1Cl")
"> 100 µM"
>>> reported_result("Nc1c2c(nc3ccccc13)-c1ccccc1CC2")
"31.5 µM"
>>> reported_result("COc1cc2c(cc1OCCCCN1CCN(CC(=O)Nc3ccc(Cl)cc3C(=O)c3ccccc3Cl)CC1)N=CC1CCCN1C2=O (centres undefined)")
"1.44 µM"
>>> reported_result("O=c1[nH]c(Nc2cccc(CC(F)(F)F)c2)nc2nc[nH]c12")
"> 100 µM"
>>> reported_result("CC(C)CCS(=O)(=O)OCCCCOS(=O)(=O)CCC(C)C")
"> 100 µM"
>>> reported_result("C=CC1(C)CCC2C(=CCC3C2(C)CC(O)C(O)C3(C)COC2OC(C(=O)O)C(O)C(O)C2O)C1 (centres undefined) (tested in a mixture with another compound)")
"> 100 µM"
>>> reported_result("CC1CCc2nc[nH]c(=O)c21 (centres undefined)")
"> 100 µM"
>>> reported_result("CN(C)c1ccc(/C=C\\C2=[N+](C)c3ccccc3C2(C)C)cc1")
"> 55.2 µM"
>>> reported_result("O=C1/C(=C/c2ccccc2)N=C2Sc3c(nc[nH]c3=O)N12")
"> 100 µM"
>>> reported_result("Cc1ccccc1C(=O)N1CCc2c([nH]c3ccccc23)C1")
"65 µM"
>>> reported_result("OC1CSSC1Cn1cnc2c(Nc3ccc(OCc4cccc(F)c4)c(Cl)c3)ncnc21 (centres undefined)")
"12.8 µM"
>>> reported_result("Cc1ccc(NC(=O)Nc2ccc(-c3cccnc3)cc2N2CCC(CO)CC2)cc1")
"> 100 µM"
>>> reported_result("COc1cccc(C(=O)O[C@H]2[C@@H]3[C@]4(OC(C)=O)CO[C@@H]4C[C@H](O)[C@@]3(C)C(=O)[C@H](OC(C)=O)C3=C(C)[C@@H](OC(=O)[C@H](O)[C@@H](NC(=O)OC(C)(C)C)c4ccco4)C[C@]2(O)C3(C)C)c1")
"> 15.2 µM"
>>> reported_result("Cc1ccc(Cl)c2[nH]c(-c3ccccc3)cc(=O)c12")
"> 100 µM"
>>> reported_result("NC(N)=NS(=O)(=O)c1ccc(Nc2c3ccccc3nc3c(C(=O)NCCO)cccc23)cc1")
"0.322 µM"
